All values here come from patent US20130040935A1.

Field: IC50. Provide a value for each of the compounds that follow.
- Measured On: human ACC1 (acetyl-coenzyme A carboxylase alpha transcript variant 1) (Homo sapiens, UniProt Q13085)
- Construct: FLAG (C); made in house; host or cells: baculovirus-infected insect cells (Hi5)
- Measurement Description: Human ACC1 enzyme assay, Assay B1 (ADP-Glo)
- Type: biochemical
- Applied Conditions: Assay B1, ADP-Glo; read-out: ACC 1 (=B1) IC50
Give bare numbers, in nM.

Example entries begin here.
Cc1ccc(-c2ccc(Cl)cc2)cc1C1=C(O)C2(CC2)OC1=O; 1990
Cc1ccc(-c2ccc(Cl)cc2)cc1C1=C(O)C2(CCC(OCC(F)(F)F)CC2)OC1=O (centres unmarked); 227

I need IC50 for every entry listed below, if you could help.
1. O=C1OC2(CCCC2)C(O)=C1c1cc(-c2cc(F)c(F)c(F)c2)ccc1Cl
2. Cc1ccc(-c2ccc(Cl)cc2)cc1C1=C(O)C2(CCC3(CCCO3)CC2)OC1=O (centres unmarked)
3. CCCOC1CCC2(CC1)OC(=O)C(c1cc(-c3ccc(Cl)cc3)c(C)cc1C)=C2O (centres unmarked)

Response:
1: 2090; 2: 206; 3: 402
